Quick reference: TGI of the listed items.
System: SN12C renal
Experiment: NCI tumour cell line growth inhibition, 48 h
Observable: TGI

> print(dat)
                                   compound  system.under.test  observable  value.observed
1  O=C1c2c(ccc3c2CCCC3)CC1Cc1ccc2c(c1)CCCC2 (stereo not drawn)        SN12C renal         TGI        > 100 µM
2             Nc1ccccc1C#C/C=C\C#Cc1ccccc1F        SN12C renal         TGI         20.9 µM
3  CCOC(=O)/C=C1\Oc2ccccc2C1(C)O (stereo not drawn)        SN12C renal         TGI        > 100 µM
